molecules and their reported T/C
System: L1210 leukemia ip in BDF1 mice, survival T/C
Experiment: NCI In Vivo Anticancer Drug Screen. Data for tumor model L1210 Leukemia (intraperitoneal) in B6D2F1 (BDF1) mice
Settings: endpoint: mean survival time; dose: 200.0 mg/kg/injection; schedule: Q01DX001 (ip); vehicle: Klucel (hydroxypropylcellulose) (HPC); higher = longer survival
Toxic doses and inconclusive results are not listed.

[[record]]
molecule = "O=C1OCCN1N1C(=O)CC2(CCCCC2)C1=O"
observed = "97 % of control"

[[record]]
molecule = "C/C(=N\\N)C(=O)S(=O)(=O)c1c(C)cc(C)cc1C"
observed = "97 % of control"


Okay, next one:
So what's the measured T/C for this one? CC1Oc2ccccc2OC1CN1CCC2(CC1)C(=O)N(C)CN2c1ccccc1 (stereo not drawn)
99 % of control
